Source listed as ChEMBL document CHEMBL3880431.

# system under test: Heme oxygenase (Pseudomonas aeruginosa, UniProt O69002)
# Sequence (O69002 whole entry): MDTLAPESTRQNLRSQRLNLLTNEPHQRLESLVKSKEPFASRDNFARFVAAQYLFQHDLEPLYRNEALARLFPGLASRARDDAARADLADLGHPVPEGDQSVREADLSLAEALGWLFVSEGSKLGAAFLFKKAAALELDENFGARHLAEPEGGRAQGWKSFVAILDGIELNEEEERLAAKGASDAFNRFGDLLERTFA
# assay explanation: Binding affinity to Pseudomonas aeruginosa MPAO1 wild type apo heme oxygenase by spectrofluorimetric analysis
# cond: read-out: Kd
measurement kind: Kd (µM)
The figure you give is taken to be in µM; do not add the unit.

Per the reported Heme oxygenase (Pseudomonas aeruginosa, UniProt O69002) data, `C(=N\Nc1nc(-c2cccnc2)cs1)/c1cccnc1` has Kd of 20.9

For the compound `NC(=O)c1ccc(NC(=O)/C=C\C(=O)O)cc1Cl` , the measured Kd on Heme oxygenase (Pseudomonas aeruginosa, UniProt O69002) was 187

Test item `Nc1cnccc1C(=O)O` ; Heme oxygenase (Pseudomonas aeruginosa, UniProt O69002); reported Kd was 44.7

Entry `Cc1ccccc1C(=O)Nc1cc(C(=O)O)cc(C(=O)O)c1` under Heme oxygenase (Pseudomonas aeruginosa, UniProt O69002) had Kd of 72.8

Form field Kd for item `CN(C)c1ccc(/C=N/n2nnnc2N)cc1` on Heme oxygenase (Pseudomonas aeruginosa, UniProt O69002): 15.8

Heme oxygenase (Pseudomonas aeruginosa, UniProt O69002) assay, compound `O=C(O)Cn1c(=O)c2cc3c(=O)n(CC(=O)O)c(=O)c3cc2c1=O` , recorded Kd = 6.1
